System: Bacteroides fragilis
assay: Antimicrobial activity against Bacteroides fragilis by agar dilution method
Type: functional
Answer each item with its documented MIC50.
// units = µg/mL; emit number, no label

Qu. Reported MIC50 for Bacteroides fragilis, given `C[C@@H](O)[C@H]1C(=O)N2C(C(=O)O)=C(S[C@@H]3CN[C@H](C(=O)N(C)C)C3)[C@H](C)[C@H]12` ?
Ans. 0.25

Qu. Reported MIC50 for Bacteroides fragilis, given C[C@@H](O)[C@H]1C(=O)N2C(C(=O)O)=C(SCCNC=N)C[C@H]12 [IMIPENEM ANHYDROUS] ?
Ans. 0.5

Qu. Reported MIC50 for Bacteroides fragilis, given `CO[C@@]1(NC(=O)Cc2cccs2)C(=O)N2C(C(=O)O)=C(COC(N)=O)CS[C@@H]21` ?
Ans. 16

Qu. Reported MIC50 for Bacteroides fragilis, given `CCC[C@@H]1C[C@@H](C(=O)N[C@@H]([C@H]2O[C@H](SC)[C@H](O)[C@@H](O)[C@H]2O)[C@H](C)Cl)N(C)C1` ?
Ans. 0.5

Qu. Reported MIC50 for Bacteroides fragilis, given `COc1c(N2C[C@@H]3CCCN[C@@H]3C2)c(F)cc2c(=O)c(C(=O)O)cn(C3CC3)c12` ?
Ans. 1

Qu. Reported MIC50 for Bacteroides fragilis, given `C[C@@H](O)[C@H]1C(=O)N2C(C(=O)O)=C(S[C@@H]3CN[C@H](C(=O)Nc4cccc(C(=O)O)c4)C3)[C@H](C)[C@H]12` ?
Ans. 0.5

Qu. Reported MIC50 for Bacteroides fragilis, given `C[C@@H](O)[C@H]1C(=O)N2C(C(=O)O)=C(S[C@@H]3CN[C@H](CNS(N)(=O)=O)C3)[C@H](C)[C@H]12` ?
Ans. 0.5

* * *

Tested on: Bacteroides fragilis
assay: Antimicrobial activity against Bacteroides fragilis assessed as resistant isolates by agar dilution method
Type: functional
measurementKind: Activity (%)
// units = %; emit number, no label

Qu. Please report the recorded Activity for CO[C@@]1(NC(=O)Cc2cccs2)C(=O)N2C(C(=O)O)=C(COC(N)=O)CS[C@@H]21 [CEFOXITIN] .
Ans. 3

Qu. Please report the recorded Activity for C[C@@H](O)[C@H]1C(=O)N2C(C(=O)O)=C(S[C@@H]3CN[C@H](C(=O)N(C)C)C3)[C@H](C)[C@H]12 [MEROPENEM] .
Ans. 1.5

Qu. Please report the recorded Activity for COc1c(N2C[C@@H]3CCCN[C@@H]3C2)c(F)cc2c(=O)c(C(=O)O)cn(C3CC3)c12 [MOXIFLOXACIN] .
Ans. 29.3

Qu. Please report the recorded Activity for CCC[C@@H]1C[C@@H](C(=O)N[C@@H]([C@H]2O[C@H](SC)[C@H](O)[C@@H](O)[C@H]2O)[C@H](C)Cl)N(C)C1 [CLINDAMYCIN] .
Ans. 29.3

Qu. Please report the recorded Activity for C[C@@H](O)[C@H]1C(=O)N2C(C(=O)O)=C(SCCNC=N)C[C@H]12 [IMIPENEM ANHYDROUS] .
Ans. 1

Qu. Please report the recorded Activity for `C[C@@H](O)[C@H]1C(=O)N2C(C(=O)O)=C(S[C@@H]3CN[C@H](C(=O)Nc4cccc(C(=O)O)c4)C3)[C@H](C)[C@H]12` .
Ans. 2

Qu. Please report the recorded Activity for C[C@@H](O)[C@H]1C(=O)N2C(C(=O)O)=C(S[C@@H]3CN[C@H](CNS(N)(=O)=O)C3)[C@H](C)[C@H]12 [DORIPENEM] .
Ans. 1.5

Qu. Please report the recorded Activity for CCN1CCN(C(=O)N[C@@H](C(=O)N[C@@H]2C(=O)N3[C@@H]2SC(C)(C)[C@@H]3C(=O)O)c2ccccc2)C(=O)C1=O [PIPERACILLIN] .
Ans. 1

Qu. Please report the recorded Activity for CC1(C)S[C@@H]2[C@H](NC(=O)[C@H](N)c3ccccc3)C(=O)N2[C@H]1C(=O)O [AMPICILLIN] .
Ans. 4.5

Values compiled from ChEMBL document CHEMBL1275561.
